The reader will find reported melting point values listed item by item below.

CCOc1ccc(-c2nc(C#N)c3c(n2)n(-c2ccccc2OC)c(=O)n3C)cc1 [Compound 15a] | 235 to 237 °C

Quick check: melting point of COc1ccc(-c2nc(C#N)c3[nH]c(=O)n(-c4ccccc4OC)c3n2)cc1O [Compound 12f] ? 294 to 296 °C

// query: CCOc1ccc(-c2nc(C#N)c3[nH]c(=O)n(-c4ccc([N+](=O)[O-])cc4)c3n2)cc1 [Compound 12d] 293.2 to 294.8 °C

Same read-out for CCOc1ccc(-c2nc(C(=N)NO)c3c(n2)n(-c2ccccc2OC)c(=O)n3C)cc1 [Compound 21a] ? 229 to 231 °C
